# System: OVCAR-3
# assay overview: NCI tumour cell line growth inhibition, 48 h
Calls of active or inactive are those of the source. Cut-off read from the data, not from the text of the source: active = GI50 up to about 1.1 µM and inactive = higher.
Select the matching outcome among True for active, False for inactive

Query string: Call for entry CC(=O)OC1CC2C(C)(C)C(=O)C=CC2(C)C2CCC3(C)C(c4ccoc4)OC(=O)C4OC43C12C (centres undefined) :
Result string: False

Query string: I would be grateful if you could indicate the recorded call for Nc1ncnc2c1nnn2C1CCC(CP(=O)(O)O)C1 (centres undefined) .
Result string: False

---

Task for the reader: assign each of the following molecules its reported GI50.
# Test system: OVCAR-4
# assay overview: NCI tumour cell line growth inhibition, 48 h
Activity calls are given as the source filed them. Rule as the data show it: active = GI50 up to about 1.1 µM and inactive = higher.

Consider the reported GI50 for these molecules:
Query string: GI50 lookup needed for C=C1CC(COc2ccc3ccc(=O)oc3c2)(c2ccccc2)OC1=O (stereo unspecified) , thanks.
Result string: 1.49 µM (inactive)

Query string: Please give the measured GI50 for this molecule: CCOC(=O)N1N(c2ccccc2)C(=O)C1(c1ccccc1)c1ccccc1
Result string: > 100 µM (inactive)

Query string: What does the data say about its GI50? Entry: C[C@@H]1C[C@]2(C[C@@H](C)[C@H]3C(C[C@@]4(C)CCC[C@@H]5C6=C[C@H](CCC34C)OC6=CC(=O)OC5(C)C)O2)OC1=O (stereo partly specified)
Result string: > 51.5 µM (inactive)

Query string: Could you tell me which GI50 is on file for O=c1nc2n(CCO)c(-c3ccccc3)c(-c3ccccc3)nc-2c(=O)[nH]1 ?
Result string: > 100 µM (inactive)

Query string: # query: GI50 of entry COc1cc(O)c2c(O)c3c(=O)oc(C)cc3c(OC)c2c1 [PAEPALANTINE]
Result string: 14.7 µM (inactive)

Query string: Please give the measured GI50 for this molecule: Clc1ccc(Cc2nc3cc(Cl)ccc3o2)cc1
Result string: 24.4 µM (inactive)

Provide reported GI50 for each item, in the same order as listed.
1. O=c1ccn(/C=C/C(O)C(O)CO)c(=O)[nH]1 (stereo unspecified)
2. Fc1ccc(C2NC(=S)NC3=C2CCOc2c3ccc3ccccc23)cc1 (stereo unspecified)
3. O=C1CCC(O)=C1O
4. Cc1cccc2[nH]c3c(c(O)cc4[nH]c5cccc(C)c5c(=O)c43)c(=O)c12
5. CC(=O)c1ccc(Oc2ccc(/C(C)=N\N=C(N)N)cc2)cc1

Result string:
1: > 100 µM (inactive); 2: 24.7 µM (inactive); 3: > 100 µM (inactive); 4: 4.33 µM (inactive); 5: 10.6 µM (inactive)

For every listed record, write down its GI50.
1. O=C(N/C(=C\c1ccc([N+](=O)[O-])cc1)c1nc2ccccc2s1)c1ccccc1
2. CCOC(=O)C1=C(C)N(C2OC(COC(C)=O)C(OC(C)=O)C(OC(C)=O)C2OC(C)=O)C(=O)NC1c1ccccc1 (stereo unspecified)

Result string:
1. 29.9 µM (inactive)
2. > 100 µM (inactive)
